Examples of molecules with documented IC50 follow.
- experimental-target: canine TRPM8 (Canis lupus familiaris)
- Construct: expressed in transfected cells
- Sequence (Q1A7N1 1-1104): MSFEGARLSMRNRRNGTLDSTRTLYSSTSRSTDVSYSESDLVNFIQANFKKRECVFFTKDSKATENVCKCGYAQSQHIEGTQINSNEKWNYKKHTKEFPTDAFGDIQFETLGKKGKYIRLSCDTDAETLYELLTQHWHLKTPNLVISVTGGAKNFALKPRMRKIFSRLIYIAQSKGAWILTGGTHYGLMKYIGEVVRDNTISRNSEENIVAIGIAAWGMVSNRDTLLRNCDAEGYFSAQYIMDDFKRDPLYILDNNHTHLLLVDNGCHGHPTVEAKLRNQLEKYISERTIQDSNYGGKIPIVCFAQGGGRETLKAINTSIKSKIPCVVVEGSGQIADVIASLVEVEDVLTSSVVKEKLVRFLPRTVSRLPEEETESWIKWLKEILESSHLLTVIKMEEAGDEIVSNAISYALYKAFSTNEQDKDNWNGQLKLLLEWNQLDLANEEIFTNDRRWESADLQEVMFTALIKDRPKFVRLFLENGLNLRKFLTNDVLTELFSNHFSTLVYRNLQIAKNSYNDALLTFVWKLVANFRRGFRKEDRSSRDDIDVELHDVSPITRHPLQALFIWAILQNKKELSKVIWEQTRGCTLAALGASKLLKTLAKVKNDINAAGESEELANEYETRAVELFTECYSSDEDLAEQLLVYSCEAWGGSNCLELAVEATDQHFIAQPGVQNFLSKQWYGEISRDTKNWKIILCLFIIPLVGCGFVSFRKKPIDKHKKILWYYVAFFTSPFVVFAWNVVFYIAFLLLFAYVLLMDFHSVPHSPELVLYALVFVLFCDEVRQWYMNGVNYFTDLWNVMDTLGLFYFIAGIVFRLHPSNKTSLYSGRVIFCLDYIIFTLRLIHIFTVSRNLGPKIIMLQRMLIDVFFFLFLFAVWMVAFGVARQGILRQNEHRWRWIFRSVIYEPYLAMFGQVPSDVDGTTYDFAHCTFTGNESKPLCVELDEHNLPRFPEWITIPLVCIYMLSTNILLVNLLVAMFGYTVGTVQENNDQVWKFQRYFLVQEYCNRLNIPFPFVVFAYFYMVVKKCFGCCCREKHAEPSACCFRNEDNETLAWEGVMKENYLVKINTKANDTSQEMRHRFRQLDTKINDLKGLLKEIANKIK
- experimental-details: In vitro canine TRPM8 functional assay (Ca2+-sensitive dye, FLIPR/FDSS, icilin activation)
- Format: cell-based
- condition-parameters: HEK293 cells expressing canine TRPM8, icilin activation; eight-point dose-response; read-out: IC50

| molecule | IC50 [nM] |
| --- | --- |
| CC(C)OP(=O)(OC(C)C)C(Cc1c(F)c(F)c(O)c(F)c1F)c1sc2ccccc2c1Br (racemic) [Cpd 229] | 156 |
| CC(C)OP(=O)(OC(C)C)C(Cc1cccc(Cl)c1)c1cc2ccccc2s1 (centres unmarked) [Cpd 134] | 340 |
| Cc1ccc2sc(C(Cc3ccc(F)c(F)c3)P(=O)(OC(C)C)OC(C)C)c(C)c2c1 (centres unmarked) [Cpd 62] | 290 |
| CCOP(=O)(OCC)C(Cc1cc(OC)cc(OC)c1)c1sc2ccccc2c1Br (centres unmarked) [Cpd 319] | 26 |
| CCOP(=O)(OCC)C(Cc1ccc(F)c(F)c1)c1cc2ccccc2o1 (centres unmarked) [Cpd 265] | 409 |

---

Known inhibition at 0.5 µM of a selection of molecules
- experimental-target: canine TRPM8 (Canis lupus familiaris)
- Construct: expressed in transfected cells
- experimental-details: In vitro canine TRPM8 functional assay (Ca2+-sensitive dye, FLIPR/FDSS, icilin activation)
- Format: cell-based
- condition-parameters: HEK293, 0.5 μM compound; HEK293 cells expressing canine TRPM8, icilin activation; read-out: % I (0.5 μM)

| molecule | quantity-unit | inhibition at 0.5 µM |
| --- | --- | --- |
| CC(C)OP(=O)(OC(C)C)/C(=C/c1ccc(F)c(F)c1)c1sc2ccccc2c1Br [Cpd 334] | % | 97 |
| CC(C)OP(=O)(OC(C)C)[C@@H](Cc1ccc(F)c(C(F)(F)F)c1)c1sc2ccccc2c1Br [Cpd 242] | % | 103 |
| CC(C)OP(=O)(OC(C)C)[C@@H](Cc1ccc(F)c(F)c1)c1sc2ccccc2c1Br [Cpd 234] | % | 104 |
| CCCCOP(=O)(OCCCC)C(Cc1ccc(F)c(F)c1)c1sc2ccccc2c1Br (stereo not shown) [Cpd 209] | % | 104 |

---

- experimental-target: canine TRPM8 (Canis lupus familiaris)
- Construct: expressed in transfected cells
- experimental-details: In vitro canine TRPM8 functional assay (Ca2+-sensitive dye, FLIPR/FDSS, icilin activation)
- Assay type: cell-based
- condition-parameters: HEK293 cells expressing canine TRPM8, icilin activation; eight-point dose-response; read-out: IC50
pIC50: −log10 of the molar value.
Mark not fulfilled for pIC50 values under 7, and fulfilled for everything at or above.

| compound | assigned-category |
| --- | --- |
| COc1ccc(CC(c2sc3ccccc3c2Br)P(=O)(OC(C)C)OC(C)C)c(F)c1 (racemic) | fulfilled |
| CCOP(=O)(OCC)C(Cc1ccc(F)c(F)c1)c1sc2cccc(F)c2c1Br (racemic) | fulfilled |
| CC(C)OP(=O)(OC(C)C)C(Cc1cc(C(F)(F)F)ccc1F)c1sc2ccccc2c1Br (centres unmarked) | fulfilled |
| CCOP(=O)(OCC)C(Cc1cc(C(F)(F)F)ccc1Cl)c1sc2ccccc2c1Br (racemic) | not fulfilled |
